Biological target: UniProt:O14842
Sequence (O14842 whole entry): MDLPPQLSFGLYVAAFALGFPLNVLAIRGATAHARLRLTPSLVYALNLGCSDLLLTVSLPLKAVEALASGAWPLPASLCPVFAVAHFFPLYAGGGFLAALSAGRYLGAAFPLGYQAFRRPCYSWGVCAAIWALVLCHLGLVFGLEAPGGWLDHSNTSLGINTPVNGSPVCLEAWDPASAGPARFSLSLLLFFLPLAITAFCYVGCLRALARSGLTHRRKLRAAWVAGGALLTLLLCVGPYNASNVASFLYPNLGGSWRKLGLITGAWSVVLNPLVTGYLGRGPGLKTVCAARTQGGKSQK
Test: FLIPR assay: agonist-induced calcium mobilization in GPR40/CHO NFAT BLA cells
Type: cell-based
Set-up: expressed in transfected cells; host or cells: CHO cells stably expressing NFAT BLA (beta-lactamase)
pEC50: −log10 of the molar value.
measuredParameter: pEC50

For orientation, consider the following solved cases.
[
  {
    "molecule": "Cc1nc(OC2CCS(=O)(=O)CC2)ccc1-c1cccc(COc2ccc3c(c2)C[C@H]2[C@H](C(=O)O)[C@@H]32)c1C [Example 17]",
    "pEC50": 6.60
  },
  {
    "molecule": "Cc1cc(NCCCS(C)(=O)=O)ncc1-c1ccc(F)c(COc2ccc3c(c2)C[C@H]2[C@H](C(=O)O)[C@@H]32)c1 [Example 14]",
    "pEC50": 6.84
  },
  {
    "molecule": "Cc1nc(OCC2(O)CCCCC2O)ccc1-c1ccc(F)c(COc2ccc3c(c2)C[C@H]2[C@H](C(=O)O)[C@@H]32)c1 (stereo partly drawn) [Example 26]",
    "pEC50": 7.08
  }
]

[A] Cc1cc(OC2CCS(=O)(=O)CC2)nc(C)c1-c1ccc(F)c(COc2ccc3c(c2)C[C@H]2[C@H](C(=O)O)[C@@H]32)c1 [Example 9]
[B] Cc1nc(N2CCC3(C=Cc4ccccc43)CC2)ccc1-c1ccc(F)c(COc2ccc3c(c2)C[C@H]2[C@H](C(=O)O)[C@@H]32)c1 [Example 40]
[C] Cc1nc(OCCCCn2nccn2)ccc1-c1ccc(F)c(COc2ccc3c(c2)CC2C(C(=O)O)C32)c1 (stereo not drawn) [Example 29]
**Q:** Order each entry by recorded pEC50, climbing from the minimum. Rank the items, then write their labels in that order.
**A:** A, B, C
(A: 7.00, B: 7.49, C: 7.79)
